- ASSAY NAME: Binding affinity to N-terminal hexahistidine-tagged recombinant human Mint2-PARM (364 to 570 residues) in presence of probe [(TAMRA)-NNG-QNGYENPTYKFFEQMQN] by fluorescense polarization assay
*1 amine or outer side, *2 acyl side, *3 side chain or, on linkers, in order; H or OH if unused. Where a SMILES comes first, the peptide text is derived from it. Bridges are numbered along the chain shown (N, C = ends). [ ]: non-standard residue; d: D form. Pyridine(2,6-diCH2) = c1cc(C[*:1])nc(C[*:2])c1; S8 = C=CCCCCCC[C@](C)(N)C(=O)O; S5 = C=CCCC[C@](C)(N)C(=O)O
RESULT TYPE: pKi
Value format note: pKi is -log10 of concentration (mol/L); just state the number.

Some compounds with recorded pKi:
{"columns": ["COMPOUND", "pKi"],
 "data": [
  ["C[C@@]1(C(=O)N[C@@H](CCC(=O)O)C(=O)O)CCCCCC/C=C/CCC[C@](C)(NC(=O)[C@@H]2CCCN2C(=O)[C@H](CC(N)=O)NC(=O)[C@H](CCC(=O)O)NC(=O)[C@H](Cc2ccc(O)cc2)NC(=O)CNC(=O)[C@@H](N)CC(N)=O)C(=O)N[C@@H](Cc2ccc(O)cc2)C(=O)N[C@@H](CCCCN)C(=O)N[C@@H](Cc2ccccc2)C(=O)N1 (H-NGYENP[S5]YKF[S8]E-OH; staple (E) 7-11)", 6.10],
  ["NCCCC[C@@H]1NC(=O)[C@H](Cc2ccc(O)cc2)NC(=O)[C@@H](NC(=O)[C@@H]2CCCN2C(=O)[C@H](CC(N)=O)NC(=O)[C@H](CCC(=O)O)NC(=O)[C@H](Cc2ccc(O)cc2)NC(=O)CNC(=O)[C@@H](N)CC(N)=O)CCSCc2ccc(cc2)CSCC[C@@H](C(=O)N[C@@H](CCC(=O)O)C(=O)O)NC(=O)[C@H](Cc2ccccc2)NC1=O", 6.52],
  ["C[C@@]1(C(=O)N[C@@H](CCC(=O)O)C(=O)O)CCC/C=C\\CCC[C@](C)(NC(=O)[C@@H]2CCCN2C(=O)[C@H](CC(N)=O)NC(=O)[C@H](CCC(=O)O)NC(=O)[C@@H](Cc2ccc(O)cc2)NC(=O)CNC(=O)[C@H](N)CC(N)=O)C(=O)N[C@@H](Cc2ccc(O)cc2)C(=O)N[C@@H](CCCCN)C(=O)N[C@@H](Cc2ccccc2)C(=O)N1", 6.30]
]}

Next:
// field: pKi; key: NCCCC[C@@H]1NC(=O)[C@H](Cc2ccc(O)cc2)NC(=O)[C@@H](NC(=O)[C@@H]2CCCN2C(=O)[C@H](CC(N)=O)NC(=O)[C@H](CCC(=O)O)NC(=O)[C@H](Cc2ccc(O)cc2)NC(=O)CNC(=O)[C@@H](N)CC(N)=O)CSCc2cccc(n2)CSC[C@@H](C(=O)N[C@@H](CCC(=O)O)C(=O)O)NC(=O)[C@H](Cc2ccccc2)NC1=O (H-NGYENPCYKFCE-OH; linker 7-11 via Pyridine(2,6-diCH2)) ; value = 5.19

* * *

- ASSAY NAME: Drug uptake in human HeLa cells assessed as drug penetration incubated for 4 hrs by CA-TAMRA based CAPA assay
- Assay type: ADME, cell-based
*1 amine or outer side, *2 acyl side, *3 side chain or, on linkers, in order; H or OH if unused. Where a SMILES comes first, the peptide text is derived from it. Bridges are numbered along the chain shown (N, C = ends). Triazole bridges read from a SMILES are 1,4-linked. [ ]: non-standard residue; d: D form. The star is where a group is joined. Lys(N3) = [N-]=[N+]=NCCCC[C@H](N)C(=O)O; NH(CH2CH2O)2(CH2)6Cl = ClCCCCCCOCCOCCN*; Suc = O=C(CCC(=O)[*:2])[*:1]; Pra = C#CC[C@H](N)C(=O)O
RESULT TYPE: EC50 (µM)
Numeric answer only, unit µM assumed.

{"columns": ["COMPOUND", "EC50 (µM)"],
 "data": [
  ["NCCCC[C@@H]1NC(=O)[C@H](Cc2ccc(O)cc2)NC(=O)[C@@H](NC(=O)[C@@H]2CCCN2C(=O)[C@H](CC(N)=O)NC(=O)[C@H](CCC(=O)O)NC(=O)[C@H](Cc2ccc(O)cc2)NC(=O)CNC(=O)[C@@H](N)CC(N)=O)CCCCn2cc(nn2)C[C@@H](C(=O)N[C@@H](CCC(=O)O)C(=O)O)NC(=O)[C@H](Cc2ccccc2)NC1=O (H-NGYENP[Lys(N3)]YKF[Pra]E-OH; triazole 7-11)", 42.9]
]}

// field: EC50; key: `C[C@@]1(C(=O)N[C@@H](CCC(=O)O)C(=O)O)CCC/C=C\CCC[C@](C)(NC(=O)[C@@H]2CCCN2C(=O)[C@H](CC(N)=O)NC(=O)[C@H](CCC(=O)O)NC(=O)[C@@H](Cc2ccc(O)cc2)NC(=O)CNC(=O)[C@H](N)CC(N)=O)C(=O)N[C@@H](Cc2ccc(O)cc2)C(=O)N[C@@H](CCCCN)C(=O)N[C@@H](Cc2ccccc2)C(=O)N1` ; value = 33.3

// field: EC50; key: C[C@@H](O)[C@H](NC(=O)[C@@H]1CCCN1C(=O)[C@H](CC(N)=O)NC(=O)[C@H](CCC(=O)O)NC(=O)[C@H](Cc1ccc(O)cc1)NC(=O)CNC(=O)[C@H](CC(N)=O)NC(=O)CCC(=O)NCCOCCOCCCCCCCl)C(=O)N[C@@H](Cc1ccc(O)cc1)C(=O)N[C@@H](CCCCN)C(=O)N[C@@H](Cc1ccccc1)C(=O)N[C@@H](Cc1ccccc1)C(=O)N[C@@H](CCC(=O)O)C(=O)O ({NH(CH2CH2O)2(CH2)6Cl-Suc}-NGYENPTYKFFE-OH) ; value = 42
